# target system: T1, MHC class I molecule HLA-A*0201 (iTopia plate-bound monomer) (biotin (bound to streptavidin-coated plate))
# T1 construct: also called A2
# protocol details: iTopia off-rate assay, 37 C; fit R^2 0.93
# Protocol: The 9 mers were tested for Peptide Binding, Off Rate and Affinity using iTopia Epitope Discovery System in accordance with the manufacturer's instructions. […] Determinations are performed in duplicate using an ELISA plate reader and included allele specific positive controls. A one-phase exponential decay curve, with a plateau given equal to 0, was generated using GraphPad Prism® software, which calculated the t1/2 and goodness-of-fit, as measured by r², for each peptide.
Reported values of t½ half life for individual entries
All answers are understood in h, so give the number only.

Examples with answers:
binder | result type | experimental result
LALVLLGWV (also called Peptide No 11) [5T4 9-mer peptide 11 LALVLLGWV] | t½ half life | 1.6
VFLDNNPWV [5T4 9-mer peptide 145 VFLDNNPWV] | t½ half life | 1.2
GLRRLELAS [5T4 9-mer peptide 106 GLRRLELAS] | t½ half life | 0.4

Now let's try a different one.
For the binder ILPPSLQTS (also called Peptide No 174) [5T4 9-mer peptide 174 ILPPSLQTS] , give its reported t½ half life.
5
